Test system: ICR mice
Experiment Summary: Acute toxicity experiment of single oral administration in mice
Assay type: in vivo
Stated Conditions: Day 7; female; 1000 mg/Kg single oral dose
Catalogue of Daily Body Weight of Tested Female Mice (Mean ± SD) readings, one per entry.
API: value field is a number in g; no unit string.

Lab note: measured Daily Body Weight of Tested Female Mice (Mean ± SD) of COCCCN1C(=O)CCC(N2C(=O)c3ccc(N)cc3C2=O)C1=O (stereo not shown) was 25.2

====

Catalogue of Daily Body Weight of Tested Female Mice (Mean ± SD) readings, one per entry.
System: ICR mice
Experiment Summary: Acute toxicity experiment of single oral administration in mice
Format: in vivo
Stated Conditions: Day 7; female; 1000 mg/Kg single oral dose
API: value field is a number in g; no unit string.

Lab note: measured Daily Body Weight of Tested Female Mice (Mean ± SD) of CNc1cccc2c1C(=O)N(C1CCC(=O)N(CCOC)C1=O)C2=O (stereo not drawn) [Example 2] was 24.5

Lab note: measured Daily Body Weight of Tested Female Mice (Mean ± SD) of CS(=O)(=O)CCN1C(=O)CCC(N2C(=O)c3cccc(N)c3C2=O)C1=O (stereo not drawn) [Example 13] was 23.6

Lab note: measured Daily Body Weight of Tested Female Mice (Mean ± SD) of CCOCCN1C(=O)CCC(N2C(=O)c3cccc(F)c3C2=O)C1=O (stereo not drawn) [Example 20] was 23.7

Just for reference, patent US11873287B2 is where these values come from.
